Where these numbers come from: patent US20090312408A1

- Test system: BBCE cells
- ASSAY SUMMARY: bFGF-induced endothelial cell proliferation, analysis by cell counting
- Format: cell-based
- PARTICULARS: 120 h, 2.5 ng/ml bFGF, cell counting on day 5 or 6, read-out: half-maximal concentration, inhibition of bFGF-induced proliferation of endothelial cells

# COMPOUND, TARGET DESC, IC50 [nM]
rows = [
    ("COc1cc2c(cc1O)OCC(c1ccc(O)cc1)C2 (stereo not shown) [F47, 7,4′-dihydroxy-6-methoxy-isoflavan]", "BBCE cells", 3000),
]
